Test system: MDA-MB-435 melanoma
Experiment: NCI-60 one-dose screen, 48 h
Settings: 10 µM unless noted
Compounds without any hit were thinned out: in the full panel of roughly 83,000, 20% have a hit. Active and inactive are the calls of the source. The calls were made as follows: active = growth percent below 10; inactive = the rest.
Please answer using one outcome listed in active, inactive

Would you mind telling me which call this test gave O=C1C(Cl)=C(Nc2cccc3ccccc23)C(=O)c2ccccc21 ?
inactive

Would you mind telling me which call this test gave CC(=O)O[C@H]1CC[C@]2(C)[C@H]3CC=C4[C@@H]5CC(C)(C)CC[C@]5(C(=O)OCC(COC(=O)C(Cl)Cl)(COC(=O)C(Cl)Cl)NC(=O)C(Cl)Cl)CC[C@@]4(C)[C@]3(C)CC[C@H]2C1(C)C ?
inactive

Would you mind telling me which call this test gave COc1ccc(Oc2nc(Nc3ccc(N4CCOCC4)cc3)ncc2NC(=O)Nc2cccc(OC)c2)cc1 ?
inactive

Would you mind telling me which call this test gave COc1ccccc1/C=C/C(=O)CCC(=O)O ?
inactive

Would you mind telling me which call this test gave C=C1C(=O)O[C@H]2[C@H]1CC/C(COC(=O)NCc1c[nH]c3ccc(OC)cc13)=C\CC[C@@]1(C)O[C@@H]21 ?
inactive

Would you mind telling me which call this test gave CCNC(=O)c1ccc2c(c1)nc(-c1ccc(Cl)cc1)n2-c1cc(C(C)(C)C)[nH]n1 ?
active

Would you mind telling me which call this test gave COc1ccc(-c2cnc(-c3ccncc3-c3cccc(OC)c3)o2)cc1 ?
active

Would you mind telling me which call this test gave O=C(O)CSc1ccc(NCc2oc(CO)cc(=O)c2O)cc1 ?
inactive

Would you mind telling me which call this test gave O=C1/C(=C/c2cc(F)cc(F)c2)Cc2cc(F)cc(F)c21 ?
inactive

Would you mind telling me which call this test gave C=C[C@H]1CCC/C=C/[C@@H]2C[C@H](O)C[C@H]2[C@H](O)/C=C/C(=O)O1 ?
inactive

Would you mind telling me which call this test gave CCCCCCCCCCCCNC(=O)N[C@H](C(=O)N[C@H]1/C=C/OCCNC(=O)/C=C/[C@H](C(C)C)NC1=O)C(C)C ?
inactive

Would you mind telling me which call this test gave Nc1c(C(=O)Nc2ccccc2)sc2nc3c(cc12)C(=O)CCC3 ?
active

Would you mind telling me which call this test gave Nc1nc(NC2CC2)cc(-c2cccc(Cl)c2Cl)n1 ?
active

Would you mind telling me which call this test gave CN(C)c1ccc(/C=C\c2cccc[n+]2C)cc1 ?
inactive

Would you mind telling me which call this test gave CCOC(=O)C1C(=O)C=C(c2ccccc2)CC1c1sc(N(C)Cc2ccccc2)nc1Cl (centres undefined) ?
inactive

Would you mind telling me which call this test gave O=C1Nc2ccc(Br)cc2/C1=N/c1nc(-c2ccccc2)cs1 ?
inactive

Would you mind telling me which call this test gave CS(=O)(=O)c1ccc(C(=O)N/N=C/c2cccc3ccccc23)cc1 ?
inactive

Would you mind telling me which call this test gave CCN(CC)c1ccc(/C=N/NC(=O)c2ccc(S(C)(=O)=O)cc2)c(O)c1 ?
inactive

Would you mind telling me which call this test gave C#Cc1cccc(Nc2nc3cc([N+](=O)[O-])ccc3nc2Nc2ccc(O)cc2)c1 ?
inactive
